Target: UniProt:Q06124
Sequence (Q06124 whole entry): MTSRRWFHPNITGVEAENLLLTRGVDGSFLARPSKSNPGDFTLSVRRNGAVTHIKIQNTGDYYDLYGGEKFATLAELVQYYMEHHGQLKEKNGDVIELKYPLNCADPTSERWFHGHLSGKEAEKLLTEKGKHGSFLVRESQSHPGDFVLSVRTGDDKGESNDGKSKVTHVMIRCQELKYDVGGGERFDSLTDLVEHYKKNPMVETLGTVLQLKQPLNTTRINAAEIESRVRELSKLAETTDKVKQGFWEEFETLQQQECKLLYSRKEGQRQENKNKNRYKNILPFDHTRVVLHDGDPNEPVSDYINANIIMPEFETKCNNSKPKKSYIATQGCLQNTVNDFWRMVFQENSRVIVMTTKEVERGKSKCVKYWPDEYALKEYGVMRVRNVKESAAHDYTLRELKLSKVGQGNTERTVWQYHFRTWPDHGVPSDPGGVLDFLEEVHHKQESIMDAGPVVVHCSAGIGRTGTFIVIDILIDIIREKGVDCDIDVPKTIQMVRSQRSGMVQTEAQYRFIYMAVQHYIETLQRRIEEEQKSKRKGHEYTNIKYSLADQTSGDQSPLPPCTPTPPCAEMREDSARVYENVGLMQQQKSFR
Experiment: SHP-2 biochemical DiFMUP pseudosubstrate-fluorogenic assay
Details: 0.2 nM SHP-2, 1 μM IRS-1 activator peptide, 50 μM DiFMUP; read-out: SHP2 IC50
Measured quantity: IC50 (nM)
One number for each entry, in nM.

Example entries and their recorded answers appear below.
>>> test_value("C[C@@H]1OCC2(CCN(c3ncc(Sc4ccnc5ccsc45)c4nccn34)CC2)[C@@H]1N [Example 106]")
4.2
>>> test_value("COc1ccc2c(Sc3cnc(N4CCC5(CC4)CO[C@@H](C)[C@H]5N)n4ccnc34)ccnc2c1 [Example 123]")
6.8
>>> test_value("C[C@@H]1OCC2(CCN(c3ncc(Sc4cccc5ncccc45)c4nccn34)CC2)[C@@H]1N [Example 129]")
10

Next, consider the following compound.
Read off the recorded IC50 for Nc1cc(Sc2cnc(N3CCC4(CCC[C@H]4N)CC3)n3ccnc23)c(C(F)(F)F)cn1 [Example 53]
12
